Values compiled from patent US4175081A.

# Test system: Cotton (CT)
# assay notes: Post-emergence herbicide test
# Assay type: in vivo, Gossypium hirsutum var. DPL smooth leaf
# condition context: Gossypium hirsutum, post-emergence, 336 h; 8 lb/acre; two weeks after treatment
I'd be grateful if you could share measured pest or weed control at 8966.8 g/ha for these entries.
Write down the numeric answer in % and omit the unit.

Look up and report measured pest or weed control at 8966.8 g/ha for this entry: CCNC(=O)Nc1nnc(SC)s1 [Example 28]
70

Look up and report measured pest or weed control at 8966.8 g/ha for this entry: CNC(=O)Nc1nncs1 [Example 35]
50

Look up and report measured pest or weed control at 8966.8 g/ha for this entry: CNC(=O)N(C)c1nnc(C(C)(C)C)s1 [Example 42]
100

Look up and report measured pest or weed control at 8966.8 g/ha for this entry: C=CCNC(=O)Nc1nnc(C(F)(F)F)s1 [Example 12]
90

Look up and report measured pest or weed control at 8966.8 g/ha for this entry: CCc1nnc(NC(=O)NC)s1 [Example 3]
90

Look up and report measured pest or weed control at 8966.8 g/ha for this entry: CNC(=O)Nc1nnc(COC)s1 [Example 25]
100

Look up and report measured pest or weed control at 8966.8 g/ha for this entry: CSc1nnc(NC(=O)NC(C)C)s1 [Example 30]
70

Look up and report measured pest or weed control at 8966.8 g/ha for this entry: CNC(=O)Nc1nnc(-c2cccc(Cl)c2)s1 [Example 72]
30

Look up and report measured pest or weed control at 8966.8 g/ha for this entry: CNC(=O)Nc1nnc(SCc2ccc(Cl)cc2)s1 [Example 87]
70

Look up and report measured pest or weed control at 8966.8 g/ha for this entry: CCSc1nnc(NC(=O)NC)s1 [Example 32]
100

Look up and report measured pest or weed control at 8966.8 g/ha for this entry: CCN(C(=O)NC)c1nnc(C(F)(F)F)s1 [Example 37]
100

Look up and report measured pest or weed control at 8966.8 g/ha for this entry: CNC(=O)Nc1nnc(CC(C)C)s1 [Example 21]
50

Look up and report measured pest or weed control at 8966.8 g/ha for this entry: O=C(Nc1ccccc1)Nc1nnc(C(F)(F)F)s1 [Example 14]
50

Look up and report measured pest or weed control at 8966.8 g/ha for this entry: C=CCNC(=O)Nc1nnc(SC)s1 [Example 31]
100

Look up and report measured pest or weed control at 8966.8 g/ha for this entry: CCSCCSc1nnc(NC(=O)NC)s1 [Example 80]
80

Look up and report measured pest or weed control at 8966.8 g/ha for this entry: CNC(=O)Nc1nnc(C)s1 [Example 18]
50

Look up and report measured pest or weed control at 8966.8 g/ha for this entry: CNC(=O)Nc1nnc(-c2ccccc2Cl)s1 [Example 74]
50

Look up and report measured pest or weed control at 8966.8 g/ha for this entry: O=C(Nc1ccc(Cl)cc1)Nc1nnc(C(F)(F)F)s1 [Example 15]
60

Look up and report measured pest or weed control at 8966.8 g/ha for this entry: CNC(=O)Nc1nnc(C(F)(F)F)s1 [Example 1]
100

Look up and report measured pest or weed control at 8966.8 g/ha for this entry: CSc1nnc(N(C)C(=O)N(C)C)s1 [Example 5]
100

Look up and report measured pest or weed control at 8966.8 g/ha for this entry: CCCNC(=O)Nc1nnc(SC)s1 [Example 29]
60

Look up and report measured pest or weed control at 8966.8 g/ha for this entry: CC(C)NC(=O)Nc1nnc(C(F)(F)F)s1 [Example 11]
60

Look up and report measured pest or weed control at 8966.8 g/ha for this entry: CCNC(=O)Nc1nnc(C(F)(F)F)s1 [Example 9]
50

Look up and report measured pest or weed control at 8966.8 g/ha for this entry: CNC(=O)Nc1nnc(-c2ccc(C)cc2)s1 [Example 76]
50
